- study system: monoclonal antibody mAB 198
- test protocol: peptide microarray, fluorescence, linear peptide
measured endpoint: relative signal [%] (%)
Just the number in %, nothing appended.

Noted for VRLRFNP [VRLRFNP, linear mimotope] : its relative signal [%] reads 27.1

Summary for this binder, `RLYWNPADY` : relative signal [%] is 11

Lab book: relative signal [%] of RLNPADY [RLNPADY, linear mimotope] noted as 17.7

Record LRINPAD [LRINPAD, linear mimotope] , field relative signal [%]: 9.2

# relative signal [%] (binder: `RLRGNPADY` ) is 6.9

Looking up RPNPADY [RPNPADY, linear mimotope] , I see its relative signal [%] listed as 9.5

// recorded relative signal [%] for YNLKYNP [YNLKYNP, linear mimotope] : 8.3

The measured relative signal [%] associated with LHWNPAD [LHWNPAD, linear mimotope] reads 15.7
